- target-system: human recombinant HDAC6 (Homo sapiens, UniProt Q9UBN7)
- Sequence (Q9UBN7 whole entry): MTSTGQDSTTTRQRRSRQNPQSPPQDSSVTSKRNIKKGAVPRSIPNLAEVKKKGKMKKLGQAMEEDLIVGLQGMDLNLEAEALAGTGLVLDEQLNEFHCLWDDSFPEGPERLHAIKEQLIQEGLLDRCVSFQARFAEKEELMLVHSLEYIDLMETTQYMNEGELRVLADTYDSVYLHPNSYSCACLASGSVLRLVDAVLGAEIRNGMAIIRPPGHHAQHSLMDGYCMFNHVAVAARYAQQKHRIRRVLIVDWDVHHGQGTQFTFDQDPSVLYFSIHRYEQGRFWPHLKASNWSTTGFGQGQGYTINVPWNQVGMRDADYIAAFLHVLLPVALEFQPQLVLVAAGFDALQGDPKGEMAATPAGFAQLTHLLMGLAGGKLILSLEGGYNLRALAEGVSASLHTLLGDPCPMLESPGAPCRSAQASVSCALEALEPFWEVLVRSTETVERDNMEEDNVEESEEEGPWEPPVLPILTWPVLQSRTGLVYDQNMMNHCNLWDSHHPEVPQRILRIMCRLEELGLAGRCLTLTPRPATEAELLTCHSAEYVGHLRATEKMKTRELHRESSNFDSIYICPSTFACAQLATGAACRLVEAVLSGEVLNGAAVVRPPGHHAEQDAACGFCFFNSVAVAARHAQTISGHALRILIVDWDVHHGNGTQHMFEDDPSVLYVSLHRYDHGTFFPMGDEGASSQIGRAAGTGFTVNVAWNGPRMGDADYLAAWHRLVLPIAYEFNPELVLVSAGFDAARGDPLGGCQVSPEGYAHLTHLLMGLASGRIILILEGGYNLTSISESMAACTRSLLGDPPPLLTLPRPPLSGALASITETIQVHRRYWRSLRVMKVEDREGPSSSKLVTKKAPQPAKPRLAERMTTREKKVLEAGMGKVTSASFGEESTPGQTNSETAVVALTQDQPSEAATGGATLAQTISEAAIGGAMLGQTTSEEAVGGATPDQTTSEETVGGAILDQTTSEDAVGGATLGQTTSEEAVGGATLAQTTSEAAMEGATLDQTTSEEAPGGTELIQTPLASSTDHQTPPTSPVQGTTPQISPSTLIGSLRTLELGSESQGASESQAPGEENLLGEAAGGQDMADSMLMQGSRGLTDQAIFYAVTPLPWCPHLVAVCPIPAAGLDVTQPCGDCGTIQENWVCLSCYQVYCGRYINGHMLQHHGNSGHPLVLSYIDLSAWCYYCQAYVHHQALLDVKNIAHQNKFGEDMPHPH
- test-protocol: In vitro HDAC enzyme activity inhibition assay, HDAC6 (HDAC Fluorimetric Drug Discovery Kit)
- measurement-setup: human recombinant HDAC6, same protocol as the HDAC1 test
observable: IC50 (µM)
Write down the numeric answer in µM and omit the unit.

Kindly note the recorded IC50 for FC(F)c1nnc(-c2ccn3cc(CNc4cccnc4)nc3c2)o1 [Compound 3675] , which is 0.125

Kindly note the recorded IC50 for O=C(N1CCN(C2CCC(F)(F)CC2)CC1)N(Cc1cn2ccc(-c3nnc(C(F)F)o3)cc2n1)c1cccc(F)c1 [Compound 4091] , which is 0.257

Kindly note the recorded IC50 for O=C(C1CCN(C2CCC(F)(F)CC2)CC1)N(Cc1cn2ccc(-c3nnc(C(F)F)o3)cc2n1)c1cccc(F)c1 [Compound 4145] , which is 0.23

Kindly note the recorded IC50 for CN1CC(C(=O)N(Cc2cn3ccc(-c4nnc(C(F)F)o4)cc3n2)c2cccc(F)c2)C1 [Compound 4188] , which is 0.373

Kindly note the recorded IC50 for CCN1CCN(C(=O)N(Cc2cn3ccc(-c4nnc(C(F)F)o4)cc3n2)c2cccc(F)c2)CC1 [Compound 4084] , which is 0.273

Kindly note the recorded IC50 for O=C(C1CN(c2ncccn2)C1)N(Cc1cn2ccc(-c3nnc(C(F)F)o3)cc2n1)c1cccc(F)c1 [Compound 4207] , which is 0.168

Kindly note the recorded IC50 for Fc1ccc(Cc2cn3ccc(-c4nnc(C(F)F)o4)cc3n2)c(F)c1 [Compound 3588] , which is 0.244

Kindly note the recorded IC50 for Fc1ccc(NCc2cn3ccc(-c4nnc(C(F)F)o4)cc3n2)cc1F [Compound 3671] , which is 0.157
